Values from ChEMBL document CHEMBL4346703

Biological target: Phosphodiesterase 4 (Homo sapiens, UniProt P27815+Q08499+Q07343+Q08493)
Experiment: Inhibition of PDE4 (unknown origin)
Assay type: protein assay
IC50 for assorted compounds

- QUERY SMILES: "CCn1ncc(-c2nc3c(O[C@H]4CCN(C(=O)C5CCOCC5)C4)ncnc3n2C)c1C"
  COMPARATIVE SIGN: ">"
  IC50 [µM]: 50
- QUERY SMILES: "CCn1ncc(-c2nc3c(N4CCC(n5c(=O)[nH]c6ncccc65)CC4)ncnc3n2C)c1C"
  COMPARATIVE SIGN: "="
  IC50 [µM]: 1.19
- QUERY SMILES: "CCC(=O)N1CC[C@H](Nc2ncnc3c2nc(-c2cnn(CC)c2C)n3C)C1"
  COMPARATIVE SIGN: "="
  IC50 [µM]: 8.4
- QUERY SMILES: "CCn1ncc(-c2nc3c(N[C@H]4CCN(C(=O)C5CCOCC5)C4)ncnc3n2C)c1C"
  COMPARATIVE SIGN: ">"
  IC50 [µM]: 20
